- Test system: MCF7 ERαY537S
- test summary: Inhibition of proliferation of MCF7 cell expressing ERα Y537S mutant
- Assay type: cell-based
- cond: Homo sapiens, 144 hours
Item-by-item account of pIC50
Reminder that pIC50 is minus the log10 of a molar concentration.

O=C(/C=C/CNC1(COc2ccc(/C(=C(/CC(F)(F)F)c3ccccc3)c3ccc4[nH]nc(F)c4c3)cn2)CC1)N1CCCCC1 :: 8.05

Here's the next entry for you.
// query Query (molecule): `CN(C)C(=O)/C=C/CN1CCC[C@@H](Oc2ccc(/C(=C(/CC(F)(F)F)c3ccccc3)c3ccc4[nH]nc(F)c4c3)cn2)C1` ; field requested: pIC50
// result 8.22
